The values you see were collected from the supplement of paper PMC9694430.

# Tested on: LOC_OS04G38480-cb003
# Sequence (as listed by the source): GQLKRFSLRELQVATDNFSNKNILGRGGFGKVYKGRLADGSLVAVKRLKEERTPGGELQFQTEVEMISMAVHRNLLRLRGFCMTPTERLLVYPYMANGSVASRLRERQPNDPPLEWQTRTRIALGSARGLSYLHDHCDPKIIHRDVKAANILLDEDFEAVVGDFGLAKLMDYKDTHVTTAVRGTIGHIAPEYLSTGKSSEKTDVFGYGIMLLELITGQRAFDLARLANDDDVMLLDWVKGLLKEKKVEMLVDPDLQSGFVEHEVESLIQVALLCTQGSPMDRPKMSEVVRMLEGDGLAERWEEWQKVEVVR
# Experiment summary: thermal shift delta Tm vs DMSO control; higher = stronger stabilization (binding);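 note: purified Escherichia coli-expressed rice kinase domain construct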
# Applied conditions: 12.5 µM; protein concentration 2 µM
compounds and their reported thermal shift delta Tm
Your answer is read as °C, so omit the unit and give the number.

Example entries and their recorded answers appear below.
O=C(c1ccc(Nc2nccc(-c3cc4ccccc4s3)n2)cc1)N1CCC(N2CCCC2)CC1 3.88
Cc1cc2c(F)c(Oc3ncnn4cc(OC[C@@H](C)OC(=O)[C@H](C)N)c(C)c34)ccc2[nH]1 0.59
Cc1nc(Nc2cnn(C3CCNCC3)c2)nc2c1N(C)C(=O)c1cc3ccccc3cc1N2C 1.64
CN(c1ccccc1CNc1nc(Nc2ccc3c(c2)CC(=O)N3)ncc1C(F)(F)F)S(C)(=O)=O 3.54

Prompt: Give the measured thermal shift delta Tm of `FC(F)(F)c1ccc(/C=C/c2nc(COc3ccc(CCCCn4ccnn4)cc3)co2)cc1` .
Response: 0.25

Prompt: Give the measured thermal shift delta Tm of `CC[C@@](C)(Nc1ccnc(-c2c[nH]c3ncccc23)n1)C(=O)NCC(F)(F)F` .
Response: 3.52

Prompt: Give the measured thermal shift delta Tm of `CN1CCN(Cc2ccc(NC(=O)Nc3ccc(Oc4ccnc(N)n4)cc3)cc2C(F)(F)F)CC1` .
Response: 2.07

Prompt: Give the measured thermal shift delta Tm of `CC(C)NC(=O)COc1cccc(-c2nc(Nc3ccc4[nH]ncc4c3)c3ccccc3n2)c1` .
Response: 1.83

###

# Test system: LOC_OS03G50810-cb003
# Experiment summary: thermal shift delta Tm vs DMSO control; higher = stronger stabilization (binding)
# Applied conditions: 12.5 µM; protein concentration 2 µM
Mark NO for thermal shift delta Tm values under 0.6 °C, and YES for everything at or above.

Record excerpt, results attached:
Compound	Experimental system	Qualitative label
C=CC(=O)Nc1cccc(Sc2nc(Nc3ccc(N4CCN(C)CC4)cc3)ncc2Cl)c1	LOC_OS03G50810-cb003	YES
Cc1c[nH]c(/C=C2\C(=O)Nc3ccccc32)c1CCC(=O)O	LOC_OS03G50810-cb003	YES
COc1cc(Nc2ncc(F)c(Nc3ccc4c(n3)NC(=O)C(C)(C)O4)n2)cc(OC)c1OC [R406 (free base)]	LOC_OS03G50810-cb003	YES
O=C(Nc1cccnc1)c1cc(-c2ccnc(F)c2)ccc1OCc1ccccc1	LOC_OS03G50810-cb003	YES
CN1CCN(c2ccc(Nc3cc(-c4cccc(-n5ccc6cc(C7CC7)cc(F)c6c5=O)c4CO)cn(C)c3=O)nc2)CC1	LOC_OS03G50810-cb003	NO

Prompt: Tell me whether thermal shift delta Tm is at least 0.6 °C here: COc1cc2nccc(Oc3ccc(NC(=O)NC4CC4)c(Cl)c3)c2cc1C(N)=O [Lenvatinib (E7080)]
Response: NO

Prompt: Tell me whether thermal shift delta Tm is at least 0.6 °C here: `COc1ccc(-c2nc(N3CCOCC3)c3sc(CN(C)c4ncc(C(=O)NO)cn4)cc3n2)cn1`
Response: NO

Prompt: Tell me whether thermal shift delta Tm is at least 0.6 °C here: `CCn1c2ccccc2c2cc(Nc3ccnc(NCCCN4CCOCC4)n3)ccc21`
Response: NO

###

# Test system: LOC_OS03G50450-cb001
# Experiment summary: thermal shift delta Tm vs DMSO control; higher = stronger stabilization (binding)
# Applied conditions: 12.5 µM; protein concentration 2 µM
Assay readout: thermal shift delta Tm

Example entries and their recorded answers appear below.
Compound	Result value
O=C(O[C@@H]1Cc2c(O)cc(O)cc2O[C@@H]1c1cc(O)c(O)c(O)c1)c1cc(O)c(O)c(O)c1 [(-)-Epigallocatechin Gallate]	-0.27 °C
CNC(=O)c1cc(Oc2ccc(NC(=O)Nc3ccc(Cl)c(C(F)(F)F)c3)c(F)c2)ccn1 [Regorafenib (BAY 73-4506)]	0.33 °C
O=C(NOCCO)c1ccc2cncn2c1Nc1ccc(I)cc1F	-0.24 °C

Prompt: Give the measured thermal shift delta Tm of `O=c1cc(N2CCOCC2)oc2c(-c3ccc4c(c3)OCCO4)csc12` .
Response: 0.44 °C

Prompt: Give the measured thermal shift delta Tm of COc1cc2ncnc(Nc3ccc(F)c(Cl)c3)c2cc1OCCCN1CCOCC1 [Gefitinib (ZD1839)] .
Response: 0.05 °C

Prompt: Give the measured thermal shift delta Tm of `Cc1cc(N2CCOCC2)cc2[nH]c(-c3c(NC[C@@H](O)c4cccc(Cl)c4)cc[nH]c3=O)nc12` .
Response: 4.61 °C

Prompt: Give the measured thermal shift delta Tm of COc1cc2c(c(OC)c1OC)-c1c(cc3c(c1OC)OCO3)CC(C)C(C)C2 (centres undefined) [Schisandrin B (Sch B)] .
Response: 0.76 °C

Prompt: Give the measured thermal shift delta Tm of `C=CC(=O)N1CCC[C@@H](n2nc(-c3ccc(Oc4ccccc4)cc3)c3c(N)ncnc32)C1` .
Response: 1.39 °C

Prompt: Give the measured thermal shift delta Tm of `CCNc1nc(Nc2cc(F)c(C(=O)N3CCOCC3)cc2OC)ncc1C(F)(F)F` .
Response: 0.95 °C

###

# System: LOC_OS01G67340-cb003
# Experiment summary: thermal shift delta Tm vs DMSO control; higher = stronger stabilization (binding)
# Applied conditions: 12.5 µM; protein concentration 2 µM
Assay readout: thermal shift delta Tm (°C)
Your answer is read as °C, so omit the unit and give the number.

Example entries and their recorded answers appear below.
Molecule	Result value
Cc1cccc(CC(=O)N2CCc3c2ccc(-c2cn(C)c4ncnc(N)c24)c3F)n1	3.56
NC(=O)c1cnc2[nH]ccc2c1N[C@@H]1[C@@H]2CC3C[C@H]1C[C@@](O)(C3)C2	3.53

Prompt: Give the measured thermal shift delta Tm of CS(=O)(=O)CCNCc1ccc(-c2ccc3ncnc(Nc4ccc(OCc5cccc(F)c5)c(Cl)c4)c3c2)o1 [Lapatinib] .
Response: 1.58

Prompt: Give the measured thermal shift delta Tm of `Nc1nccc(Oc2ccc(NC(=O)c3c[nH]cc(-c4ccc(F)cc4)c3=O)cc2F)c1Cl` .
Response: 2.23

Prompt: Give the measured thermal shift delta Tm of `Oc1cc(CNC(=S)/C=C/c2cc(O)c(O)c(Br)c2)cc(O)c1O` .
Response: 0.53

Prompt: Give the measured thermal shift delta Tm of O=c1c(O)c(-c2cc(O)c(O)c(O)c2)oc2cc(O)cc(O)c12 [Myricetin] .
Response: 2.79

Prompt: Give the measured thermal shift delta Tm of `CC(C)Nc1cc(-c2c[nH]c(C(=O)N[C@H](CO)c3cccc(Cl)c3)c2)c(Cl)cn1` .
Response: 1.23

Prompt: Give the measured thermal shift delta Tm of FC(F)(F)c1ccc(Nc2nc3ccc(Oc4ccnc(-c5ncc(C(F)(F)F)[nH]5)c4)cc3[nH]2)cc1 [Raf265 derivative] .
Response: 0.26

###

# Tested on: LOC_OS06G16330-cb003
# Sequence (as listed by the source): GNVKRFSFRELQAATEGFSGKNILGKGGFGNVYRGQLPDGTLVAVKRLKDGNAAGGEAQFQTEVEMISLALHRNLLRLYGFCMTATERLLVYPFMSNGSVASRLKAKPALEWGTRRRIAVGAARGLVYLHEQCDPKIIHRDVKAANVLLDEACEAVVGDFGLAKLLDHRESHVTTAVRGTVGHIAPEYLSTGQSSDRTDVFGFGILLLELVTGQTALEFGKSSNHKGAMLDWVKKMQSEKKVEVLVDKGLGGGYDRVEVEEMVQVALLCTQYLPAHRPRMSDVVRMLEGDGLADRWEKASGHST
# Experiment summary: thermal shift delta Tm vs DMSO control; higher = stronger stabilization (binding)
# Applied conditions: 12.5 µM; protein concentration 2 µM
Mark criterion not met for thermal shift delta Tm values under 0.2 °C, and criterion met for everything at or above.

Prompt: Tell me whether thermal shift delta Tm is at least 0.2 °C here: `C#Cc1cccc(Nc2ncnc3cc(OCCOC)c(OCCOC)cc23)c1`
Response: criterion met

Prompt: Tell me whether thermal shift delta Tm is at least 0.2 °C here: `C=C[C@@](C)(/C=C/c1ccc(O)cc1)CCC=C(C)C`
Response: criterion not met

Prompt: Tell me whether thermal shift delta Tm is at least 0.2 °C here: `Cc1ccc(S(=O)(=O)/C=C/C#N)cc1`
Response: criterion not met

Prompt: Tell me whether thermal shift delta Tm is at least 0.2 °C here: `O=C1NC(=O)C(c2cnc3ccccn23)=C1c1cn2c3c(cc(F)cc13)CN(C(=O)N1CCCCC1)CC2`
Response: criterion not met

Prompt: Tell me whether thermal shift delta Tm is at least 0.2 °C here: `Cc1cc(NC(=O)c2cccc(NC(=O)/C=C/CN(C)C)c2)ccc1Nc1nccc(-c2cccnc2)n1`
Response: criterion met

Prompt: Tell me whether thermal shift delta Tm is at least 0.2 °C here: `O=C(/C=C/c1ccc(O)c(O)c1)c1ccc(O)cc1O`
Response: criterion met

Prompt: Tell me whether thermal shift delta Tm is at least 0.2 °C here: `COc1cc2ncnc(Nc3cccc(Cl)c3)c2cc1OC`
Response: criterion met

Prompt: Tell me whether thermal shift delta Tm is at least 0.2 °C here: Cc1cc(C)c(/C=C2\C(=O)Nc3ccccc32)[nH]1 [Semaxanib (SU5416)]
Response: criterion met

Prompt: Tell me whether thermal shift delta Tm is at least 0.2 °C here: `CNC(=O)c1ccc(C)c(-n2c(C)cc(OCc3ccc(F)cc3F)c(Br)c2=O)c1`
Response: criterion not met

Prompt: Tell me whether thermal shift delta Tm is at least 0.2 °C here: `C=CC(=O)Nc1cccc(Nc2nc(Nc3ccc(Oc4ccnc(C(=O)NC)c4)cc3)ncc2F)c1`
Response: criterion met

Prompt: Tell me whether thermal shift delta Tm is at least 0.2 °C here: `COc1ccc(Oc2cc(NCCC(F)(F)F)c3ncc(-c4ccc(C(=O)NC5CC5)c(C)c4)n3n2)c(F)c1F`
Response: criterion not met

Prompt: Tell me whether thermal shift delta Tm is at least 0.2 °C here: COc1ccc(COc2cc3oc(=O)c4cc(C(C)O)ccc4c3cc2OC)cc1 (centres undefined)
Response: criterion met

Prompt: Tell me whether thermal shift delta Tm is at least 0.2 °C here: `Nc1cc(C(F)(F)F)c(-c2cc(N3CCOCC3)nc(N3CCOCC3)n2)cn1`
Response: criterion not met

Prompt: Tell me whether thermal shift delta Tm is at least 0.2 °C here: `CC(C)n1nc(-c2cc3cc(O)ccc3[nH]2)c2c(N)ncnc21`
Response: criterion met

Prompt: Tell me whether thermal shift delta Tm is at least 0.2 °C here: `COCCOc1cnc2ccn([C@H](C)c3nnc4c(F)cc(-c5cnn(C)c5)cn34)c(=O)c2c1`
Response: criterion met

Prompt: Tell me whether thermal shift delta Tm is at least 0.2 °C here: `N#Cc1c(NC(=O)c2cccc3ccccc23)sc2c1CCCC2`
Response: criterion not met

Prompt: Tell me whether thermal shift delta Tm is at least 0.2 °C here: `CNC(=O)c1cc(COc2nnc(Nc3ccc(Cl)cc3)c3ccoc23)ccn1`
Response: criterion not met

Prompt: Tell me whether thermal shift delta Tm is at least 0.2 °C here: `Nc1cccc(S(=O)(=O)N2CCCN(S(=O)(=O)c3ccc4c(c3)OCCO4)CC2)c1`
Response: criterion not met

Prompt: Tell me whether thermal shift delta Tm is at least 0.2 °C here: `Cc1cc2c(F)c(Oc3ncnn4cc(OC[C@@H](C)O)c(C)c34)ccc2[nH]1`
Response: criterion not met
